# measuredTarget: L-lactate dehydrogenase A chain (Homo sapiens)
# assayName: Inhibition of recombinant human LDHA using sodium pyruvate as substrate preincubated for 5 mins followed by diaphorase/resazurin addition and measured after 20 mins by fluorescence based assay
# IC50 per entry
Quick reminder: number only, in nM, skip the unit.

compound	IC50 / nM
NS(=O)(=O)c1ccc(Cc2c(-c3cccc(C#Cc4ccc(C5CCC5)s4)c3)nn(-c3nc(C(=O)O)cs3)c2CC2CC2)cc1F	169
NS(=O)(=O)c1ccc(Cc2c(-c3cccc(-c4ccccc4)c3)nn(-c3nc(C(=O)O)cs3)c2C2CC2(F)F)cc1 (stereo unspecified)	36
NS(=O)(=O)c1ccc(Cc2c(-c3ccc(F)c(C#CCC4CC4)c3)nn(-c3nc(C(=O)O)cs3)c2CC2CC2)cc1F	31
NS(=O)(=O)c1ccc(Cc2c(-c3ccc(F)c(C#CC4CCNCC4)c3)nn(-c3nc(C(=O)O)cs3)c2CC2CC2)cc1F	15
Cc1cc(C#Cc2cccc(-c3nn(-c4nc(C(=O)O)cs4)c(CC4CC4)c3Cc3ccc(S(N)(=O)=O)c(F)c3)c2)cs1	87
Cc1cnc(C#Cc2cccc(-c3nn(-c4nc(C(=O)O)cs4)c(CCC4CC4)c3Cc3ccc(S(N)(=O)=O)c(F)c3)c2)s1	33

**Query** Consider the compound shown here: "CC#Cc1cccc(-c2nn(-c3nc(C(=O)O)cs3)c(CC3CC3)c2Cc2ccc(S(N)(=O)=O)c(F)c2)c1" What is its recorded IC50?
**Result** 9

**Query** Consider the compound shown here: "CC(C)(C)C#Cc1cc(-c2nn(-c3nc(C(=O)O)cs3)c(CC3CC3)c2Cc2ccc(S(N)(=O)=O)c(F)c2)ccc1F" What is its recorded IC50?
**Result** 16

**Query** Consider the compound shown here: "NS(=O)(=O)c1ccc(Cc2c(-c3cccc(C#CC4CCCC4)c3)nn(-c3nc(C(=O)O)cs3)c2CC2CC2)cc1F" What is its recorded IC50?
**Result** 47

**Query** Consider the compound shown here: "Cc1ccc(C#Cc2cc(-c3nn(-c4nc(C(=O)O)cs4)c(CCC4CC4)c3Cc3ccc(S(N)(=O)=O)c(F)c3)ccc2F)s1" What is its recorded IC50?
**Result** 202

**Query** Consider the compound shown here: "NS(=O)(=O)c1ccc(Cc2c(-c3cccc(C#Cc4ccc(C(F)(F)F)s4)c3)nn(-c3nc(C(=O)O)cs3)c2CC2CC2)cc1F" What is its recorded IC50?
**Result** 434

* * *

# measuredTarget: L-lactate dehydrogenase A chain (Homo sapiens, UniProt P00338)
# assayName: Inhibition of GS[HiBiT]GS-tagged LDHA (unknown origin) expressed in HEK-293T cells measured after 1 hr by […]
# Assay type: cell-based
# log10(IC50) per entry
Quick note: numbers are log10 of IC50, with nM as the unit.

molecule	recordedMeasurement
Cc1cnc(C#Cc2cc(-c3nn(-c4nc(C(=O)O)cs4)c(CC4CC4)c3Cc3ccc(S(N)(=O)=O)c(F)c3)ccc2F)s1	2.23
CCCCC#Cc1cc(-c2nn(-c3nc(C(=O)O)cs3)c(CC3CC3)c2Cc2ccc(S(N)(=O)=O)c(F)c2)ccc1F	2.03
Cc1cc(C#Cc2cccc(-c3nn(-c4nc(C(=O)O)cs4)c(CCC4CC4)c3Cc3ccc(S(N)(=O)=O)c(F)c3)c2)c(C)s1	2.48
NS(=O)(=O)c1ccc(Cc2c(-c3ccc(F)c(-c4ccccc4)c3)nn(-c3nc(C(=O)O)cs3)c2CC2CC2)cc1	2.60
NS(=O)(=O)c1ccc(Cc2c(-c3ccc(F)c(C#CC4CCNCC4)c3)nn(-c3nc(C(=O)O)cs3)c2CC2CC2)cc1F	3.41
Cc1ncc(C#Cc2cccc(-c3nn(-c4nc(C(=O)O)cs4)c(CCC4CC4)c3Cc3ccc(S(N)(=O)=O)c(F)c3)c2)s1	4.25
Cc1nc(C#Cc2cccc(-c3nn(-c4nc(C(=O)O)cs4)c(CC4CC4)c3Cc3ccc(S(N)(=O)=O)c(F)c3)c2)cs1	2.00
Cc1nc(C#Cc2cccc(-c3nn(-c4nc(C(=O)O)cs4)c(CCC4CC4)c3Cc3ccc(S(N)(=O)=O)c(F)c3)c2)cs1	1.95

**Query** Give log10(IC50) (L-lactate dehydrogenase A chain (Homo sapiens, UniProt P00338)) of the following molecule: "NS(=O)(=O)c1ccc(Cc2c(-c3cccc(C#Cc4ccc(C(F)F)s4)c3)nn(-c3nc(C(=O)O)cs3)c2CC2CC2)cc1F"
**Result** 2.13

**Query** Give log10(IC50) (L-lactate dehydrogenase A chain (Homo sapiens, UniProt P00338)) of the following molecule: "NS(=O)(=O)c1ccc(Cc2c(-c3cccc(-c4ccccc4)c3)nn(-c3nc(C(=O)O)cs3)c2CCC2CC2)cc1"
**Result** 2.86

**Query** Give log10(IC50) (L-lactate dehydrogenase A chain (Homo sapiens, UniProt P00338)) of the following molecule: "Cc1cnc(C#Cc2cccc(-c3nn(-c4nc(C(=O)O)cs4)c(CC4CC4)c3Cc3ccc(S(N)(=O)=O)c(F)c3)c2)s1"
**Result** 1.95

**Query** Give log10(IC50) (L-lactate dehydrogenase A chain (Homo sapiens, UniProt P00338)) of the following molecule: "NS(=O)(=O)c1ccc(Cc2c(-c3ccc(F)c(C#CC(F)(F)F)c3)nn(-c3nc(C(=O)O)cs3)c2CC2CC2)cc1F"
**Result** 4.15

**Query** Give log10(IC50) (L-lactate dehydrogenase A chain (Homo sapiens, UniProt P00338)) of the following molecule: NS(=O)(=O)c1ccc(Cc2c(-c3cccc(-c4ccccc4)c3)nn(-c3nc(C(=O)O)cs3)c2C2CC2(F)F)cc1 (stereo not given)
**Result** 3.40

**Query** Give log10(IC50) (L-lactate dehydrogenase A chain (Homo sapiens, UniProt P00338)) of the following molecule: "Cc1ccc(/C=C/c2cccc(-c3nn(-c4nc(C(=O)O)cs4)c(CC4CC4)c3Cc3ccc(S(N)(=O)=O)c(F)c3)c2)s1"
**Result** 2.20

**Query** Give log10(IC50) (L-lactate dehydrogenase A chain (Homo sapiens, UniProt P00338)) of the following molecule: "NS(=O)(=O)c1ccc(Cc2c(-c3cccc(C#Cc4ccc(C5CC5)s4)c3)nn(-c3nc(C(=O)O)cs3)c2CCC2CC2)cc1F"
**Result** 2.28
